# Tested on: ppGalNAc-T3 sensor
# Assay text: T3 sensor activation Q score (MG/GFP ratio z-score vs DMSO controls) (SD units); higher = more sensor activation (inhibition of ppGalNAc-T3 glycosylation)
# Condition: HEK293 sensor cells; 10 µM; 6 h
Over roughly 1,700 compounds, “T3 sensor activation Q score (MG/GFP ratio z-score vs DMSO controls)” has its median near 0.25; the highest 2% begin near 1.9. For the sample, the highest values were picked, then their nearest neighbours and some compounds at random.
Test readout: T3 sensor activation Q score

>  <Compound>
NC(N)=NCCCS(=O)(=O)Nc1ccc(Nc2c3ccccc3nc3cc([N+](=O)[O-])ccc23)cc1

>  <Reported>
-0.75

$$$$
>  <Compound>
CC1(C)N=C(N)NC(=NCCCOc2ccc([N+](=O)[O-])cc2)N1

>  <Reported>
0.35

$$$$
>  <Compound>
Oc1c(N=Nc2nn[nH]n2)ccc2ccccc12

>  <Reported>
1.25

$$$$
>  <Compound>
OCc1nc2nc(Cl)c(Cl)nc2[nH]1

>  <Reported>
-1.15

$$$$
>  <Compound>
COCC(=O)OC1CCn2c1nc1c2C(=O)C(C)=C(NC(C)=O)C1=O (stereo unspecified)

>  <Reported>
-0.35

$$$$
>  <Compound>
CC(C)(C)n1nc(C2CC2)cc1NC(=O)Nc1ccc(Cl)cc1

>  <Reported>
0.7

$$$$
>  <Compound>
CN(C)CCCN1c2ccc3ccccc3c2Sc2cccc(Cl)c21

>  <Reported>
-0.4

$$$$
>  <Compound>
Clc1ncnc2[nH]ccc12

>  <Reported>
-0.05

$$$$
>  <Compound>
CCc1ccc(CCN2C(=O)c3ccccc3C2=O)nc1

>  <Reported>
0.1

$$$$
>  <Compound>
Cc1ccc(NC(=O)Nc2cccnc2)cc1NC(=O)Nc1cccnc1

>  <Reported>
0.95

$$$$
>  <Compound>
Cc1ccncc1C(N)=O

>  <Reported>
1.9

$$$$
>  <Compound>
O=C(O)C1OCC2(CO1)COC(C(=O)O)OC2 (stereo unspecified)

>  <Reported>
0.6

$$$$
>  <Compound>
OCc1ncccc1O

>  <Reported>
-0.75

$$$$
>  <Compound>
CC(=O)NCCCOc1ccc([N+](=O)[O-])cc1Cl

>  <Reported>
-0.6

$$$$
>  <Compound>
Nc1cc(=O)[nH]c2ncnn12

>  <Reported>
-0.15

$$$$
>  <Compound>
CCOC(=O)c1nn(-c2ccccc2)cc1O

>  <Reported>
0.05

$$$$
>  <Compound>
Cc1cnc(SCc2ccc(Cl)cc2Cl)[nH]c1=O

>  <Reported>
-0.3

$$$$
>  <Compound>
Nc1ccc(NC(=O)c2ccc(C(=O)Nc3ccc(N)cc3)cc2)cc1

>  <Reported>
1.05

$$$$
>  <Compound>
N[C@H](C(=O)O)[C@H]1ON=C(Cl)[C@H]1O

>  <Reported>
-0.15

$$$$
>  <Compound>
CC1=CC2C(C(O)CC3(C)C2CC(C)C32OCOC23COCO3)C2(C)CC(=CO)C(=O)C=C12 (stereo unspecified)

>  <Reported>
-3.35

$$$$
>  <Compound>
Cc1c(CCO)c(=O)n2n1CCCC2

>  <Reported>
-0.55

$$$$
>  <Compound>
C=CCNC(=S)N1CCN(c2ccccc2Cl)CC1

>  <Reported>
-0.25

$$$$
>  <Compound>
c1ccc(-c2nnc3nc(N4CCCCC4)nc(N4CCCCC4)n23)cc1

>  <Reported>
1.3

$$$$
>  <Compound>
CS/C(=N\S(=O)(=O)c1ccccc1)NNC(=O)c1c(-c2c(Cl)cccc2Cl)noc1C

>  <Reported>
0.65

$$$$
>  <Compound>
O=C(/C=C/c1ccccc1)CC(c1ccccc1)N1CCOCC1 (stereo unspecified)

>  <Reported>
0.15

$$$$
>  <Compound>
CCOC(=O)Cc1csc2nc(-c3ccccc3)nn12

>  <Reported>
0.25

$$$$

###

# System: ppGalNAc-T3 sensor
# Assay text: T3 sensor activation Q score (MG/GFP ratio z-score vs DMSO controls) (SD units); higher = more sensor activation (inhibition of ppGalNAc-T3 glycosylation)
# Condition: HEK293 sensor cells; 10 µM; 6 h
In all, about 1,700 compounds were measured (“T3 sensor activation Q score (MG/GFP ratio z-score vs DMSO controls)”: median about 0.25, highest 2% from about 1.9 on). This is one part of a sample in which the highest values are shown more often than they occur.
Record rule met whenever T3 sensor activation Q score is at 0.2 or higher; record rule not met when lower.

>  <Molecule>
CCOC(=O)c1cc(OCC)c2c(ccc3ccccc32)n1

>  <Label class>
rule met

$$$$
>  <Molecule>
O=C(Nc1cccc2ccccc12)c1ccccc1

>  <Label class>
rule not met

$$$$
>  <Molecule>
COc1cc(NC(C)=O)c2ncccc2c1NC(C)=O

>  <Label class>
rule met

$$$$
>  <Molecule>
O=[N+]([O-])c1cccc(-c2nc3ccccc3s/c2=N/O)c1

>  <Label class>
rule met

$$$$
>  <Molecule>
Cc1cc2nc(CS)[nH]c2cc1C

>  <Label class>
rule not met

$$$$
>  <Molecule>
CC(C)(C)n1nc(C2CC2)cc1NC(=O)Nc1ccccc1

>  <Label class>
rule met

$$$$
>  <Molecule>
COc1cc2ncnc(Nc3ccc(F)c(Cl)c3)c2cc1OCCCN1CCOCC1

>  <Label class>
rule met

$$$$
>  <Molecule>
COc1c(C=O)c2c(c(OC)c1OC)-c1ccc(OC)c(=O)cc1C(NC(C)=O)CC2 (centres undefined)

>  <Label class>
rule met

$$$$
>  <Molecule>
COc1cc(Nc2c(C#N)cnc3cc(OCCCN4CCN(C)CC4)c(OC)cc23)c(Cl)cc1Cl

>  <Label class>
rule met

$$$$
>  <Molecule>
O=C(Nc1ccc2ncccc2c1)Nc1ccc2ncccc2c1

>  <Label class>
rule not met

$$$$
>  <Molecule>
CN(C)c1ccc(N=Nc2ccccn2)cc1

>  <Label class>
rule not met

$$$$
>  <Molecule>
CC1=Nc2ccccc2/C1=C\c1c(C)[nH]c2ccccc12

>  <Label class>
rule not met

$$$$
>  <Molecule>
CC(=NO)C1CC(CC(=O)O)C1(C)C (centres undefined)

>  <Label class>
rule not met

$$$$
>  <Molecule>
CC1=C2C3OC(=O)C(C)C3CCC2(C)C=C(Cl)C1=O (centres undefined)

>  <Label class>
rule met

$$$$
>  <Molecule>
CC(=O)[C@@]1(O)[C@H](C)C[C@H]2[C@@H]3C=C(C)C4=Cc5c(cnn5-c5ccccc5)C[C@]4(C)[C@H]3[C@@H](O)C[C@@]21C

>  <Label class>
rule met

$$$$
>  <Molecule>
Cc1cc(NC(=O)NC(=O)c2ccccc2NC(=O)C(C)N)ccc1Oc1ncc(Br)cn1 (centres undefined)

>  <Label class>
rule met

$$$$
>  <Molecule>
CN(C)S(=O)(=O)c1ccccc1N=C=S

>  <Label class>
rule not met

$$$$
>  <Molecule>
COc1ccc(Br)c2c1C(=O)CC2

>  <Label class>
rule not met

$$$$
>  <Molecule>
COc1cc2c(Nc3ccc(Br)cc3F)ncnc2cc1OCC1CCN(C)CC1

>  <Label class>
rule met

$$$$
>  <Molecule>
Cc1ccc(NC(=O)Nc2ccccc2C(N)=O)cc1

>  <Label class>
rule not met

$$$$
>  <Molecule>
CC(=O)CC[N+](C)(C)C

>  <Label class>
rule met

$$$$
>  <Molecule>
CCOC(=O)c1cc(-c2ccccc2)nc2ccc(C)cc12

>  <Label class>
rule met

$$$$
>  <Molecule>
N=C(N)n1c(N)nc2ccccc2c1=O

>  <Label class>
rule not met

$$$$
